test: Cmax in Beagle dog at 0.10 mg/kg, po by cassette assay; assay type: ADME, organism-based, Canis lupus familiaris; design: dose 0.1 mg/kg, route oral; conditions: in vivo, 0.1 mg/kg
Decision: Cmax compared against 10 ng/mL; not below it gives 1 (yes), below it gives 0 (no).

{"columns": ["CHEMICAL STRUCTURE", "LABEL CLASS"],
 "data": [
  ["CS(=O)(=O)NC(=O)c1ccc(-c2ccc(CCNC[C@H](O)c3cccnc3)cc2)cc1OC1CCCCC1.Cl.Cl", "1 (yes)"],
  ["CS(=O)(=O)NC(=O)c1ccc(-c2ccc(CCNC[C@H](O)c3ccccc3)cc2)cc1CC1CCCCC1.Cl", "1 (yes)"],
  ["CS(=O)(=O)NC(=O)c1ccc(-c2ccc(CCNC[C@H](O)c3cccnc3)cc2)cc1NC1CCCCC1.Cl.Cl.Cl", "1 (yes)"],
  ["CS(=O)(=O)NC(=O)c1ccc(-c2ccc(CCNC[C@H](O)c3ccccc3)cc2)cc1C1CCCCC1.Cl", "1 (yes)"],
  ["CS(=O)(=O)NC(=O)c1ccc(-c2ccc(CCNC[C@H](O)c3ccccc3)cc2)cc1OC1CCCCC1.Cl", "1 (yes)"],
  ["CS(=O)(=O)NC(=O)c1ccc(-c2ccc(CCNC[C@H](O)c3ccccc3)cc2)cc1SC1CCCCC1.Cl", "0 (no)"],
  ["CS(=O)(=O)NC(=O)c1ccc(-c2ccc(CCNC[C@H](O)c3ccccc3)cc2)cc1NC1CCCCC1.Cl.Cl", "0 (no)"],
  ["CC(C)Cc1cc(-c2ccc(CCNC[C@H](O)c3ccccc3)cc2)ccc1C(=O)NS(C)(=O)=O.Cl", "1 (yes)"]
]}

###

experiment: Cmax in rat at 0.32 mg/kg, po by cassette assay; format: ADME, organism-based; set-up: dose 0.32 mg/kg, route oral; conditions: in vivo
Use 10 ng/mL as the dividing line for Cmax, with the line itself on the Condition met side and lower values as Condition not met.

{"columns": ["CHEMICAL STRUCTURE", "LABEL CLASS"],
 "data": [
  ["CS(=O)(=O)NC(=O)c1ccc(-c2ccc(CCNC[C@H](O)c3cccnc3)cc2)cc1OC1CCCCC1.Cl.Cl", "Condition met"],
  ["CC(C)Nc1cc(-c2ccc(CCNC[C@H](O)c3ccccc3)cc2)ccc1C(=O)NS(C)(=O)=O.Cl.Cl", "Condition met"],
  ["CC(C)Cc1cc(-c2ccc(CCNC[C@H](O)c3ccccc3)cc2)ccc1C(=O)NS(C)(=O)=O.Cl", "Condition not met"],
  ["CS(=O)(=O)NC(=O)c1ccc(-c2ccc(CCNC[C@H](O)c3cnccc3N)cc2)cc1OC1CCCCC1.Cl.Cl", "Condition not met"]
]}

###

Each entry below carries its measured EC50, system: Beta-2 adrenergic receptor (Homo sapiens).
Sequence (P07550 whole entry): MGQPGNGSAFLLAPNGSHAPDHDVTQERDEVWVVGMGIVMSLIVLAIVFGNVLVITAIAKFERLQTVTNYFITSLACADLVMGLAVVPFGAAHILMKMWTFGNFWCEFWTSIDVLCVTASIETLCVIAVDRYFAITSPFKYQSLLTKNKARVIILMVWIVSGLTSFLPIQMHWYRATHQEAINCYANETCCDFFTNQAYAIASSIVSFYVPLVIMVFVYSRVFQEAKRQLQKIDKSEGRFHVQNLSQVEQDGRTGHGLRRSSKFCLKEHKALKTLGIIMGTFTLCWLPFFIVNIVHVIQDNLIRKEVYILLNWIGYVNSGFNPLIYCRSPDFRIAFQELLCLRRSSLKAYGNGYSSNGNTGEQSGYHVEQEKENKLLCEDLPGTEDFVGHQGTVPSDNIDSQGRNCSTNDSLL

{"columns": ["CHEMICAL STRUCTURE", "EC50"],
 "data": [
  ["CS(=O)(=O)NC(=O)c1ccc(-c2ccc(CCNC[C@H](O)c3cccnc3)cc2)cc1OC1CCCCC1.Cl.Cl", "> 10 µM"],
  ["CC(C)Cc1cc(-c2ccc(CCNC[C@H](O)c3ccccc3)cc2)ccc1C(=O)NS(C)(=O)=O.Cl", "> 10 µM"],
  ["CC(C)Sc1cc(-c2ccc(CCNC[C@H](O)c3ccccc3)cc2)ccc1C(=O)NS(C)(=O)=O.Cl", "> 10 µM"]
]}

###

assay: Terminal half life in Beagle dog plasma at 0.10 mg/kg, iv by cassette assay; format: ADME, organism-based, Canis lupus familiaris; set-up: dose 0.1 mg/kg, route intravenous; settings: 0.1 mg/kg, read-out: beta t1/2 (converted)
Reported half-life is given for each of the following molecules.

{"columns": ["CHEMICAL STRUCTURE", "half-life"],
 "data": [
  ["CC(C)Sc1cc(-c2ccc(CCNC[C@H](O)c3cccnc3)cc2)ccc1C(=O)NS(C)(=O)=O.Cl.Cl", "4.3 h"],
  ["CS(=O)(=O)NC(=O)c1ccc(-c2ccc(CCNC[C@H](O)c3ccc(N)cc3)cc2)cc1OC1CCCCC1.Cl.Cl", "5.7 h"],
  ["CS(=O)(=O)NC(=O)c1ccc(-c2ccc(CCNC[C@H](O)c3ccccc3)cc2)cc1C1CCCC1.Cl", "4.7 h"],
  ["CC(C)Cc1cc(-c2ccc(CCNC[C@H](O)c3cccnc3)cc2)ccc1C(=O)NS(C)(=O)=O.Cl.Cl", "0.6 h"],
  ["CS(=O)(=O)NC(=O)c1ccc(-c2ccc(CCNC[C@H](O)c3cccnc3)cc2)cc1NC1CCCCC1.Cl.Cl.Cl", "1.3 h"],
  ["CS(=O)(=O)NC(=O)c1ccc(-c2ccc(CCNC[C@H](O)c3ccccc3)cc2)cc1NC1CCCCC1.Cl.Cl", "3.9 h"],
  ["CS(=O)(=O)NC(=O)c1ccc(-c2ccc(CCNC[C@H](O)c3ccccc3)cc2)cc1Oc1ccccc1.Cl", "4.4 h"],
  ["CS(=O)(=O)NC(=O)c1ccc(-c2ccc(CCNC[C@H](O)c3cccnc3)cc2)cc1C1CCCC1.Cl.Cl", "1.4 h"]
]}

###

test: AUC (0 to 24 hrs) in monkey at 0.32 mg/kg, po by cassette assay; assay type: ADME, organism-based, Macaca mulatta; design: time < 24 hr, dose 0.32 mg/kg, route oral; conditions: rhesus monkey, plasma

{"columns": ["CHEMICAL STRUCTURE", "UNIT TEXT", "AUC(0-t) at 24 h"],
 "data": [
  ["CC(C)Nc1cc(-c2ccc(CCNC[C@H](O)c3ccccc3)cc2)ccc1C(=O)NS(C)(=O)=O.Cl.Cl", "ng·h/mL", 19.3],
  ["CC(C)Sc1cc(-c2ccc(CCNC[C@H](O)c3ccccc3)cc2)ccc1C(=O)NS(C)(=O)=O.Cl", "ng·h/mL", 143],
  ["CS(=O)(=O)NC(=O)c1ccc(-c2ccc(CCNC[C@H](O)c3cccnc3)cc2)cc1OC1CCCCC1.Cl.Cl", "ng·h/mL", 272]
]}

###

test: Terminal half life in rat plasma at 0.32 mg/kg, iv by cassette assay; type: ADME, organism-based; design: dose 0.32 mg/kg, route intravenous; conditions: read-out: beta t1/2 (converted)

{"columns": ["CHEMICAL STRUCTURE", "UNIT TEXT", "half-life"],
 "data": [
  ["CC(C)Nc1cc(-c2ccc(CCNC[C@H](O)c3ccccc3)cc2)ccc1C(=O)NS(C)(=O)=O.Cl.Cl", "h", 4.1],
  ["CC(C)Sc1cc(-c2ccc(CCNC[C@H](O)c3ccccc3)cc2)ccc1C(=O)NS(C)(=O)=O.Cl", "h", 2.3],
  ["CS(=O)(=O)NC(=O)c1ccc(-c2ccc(CCNC[C@H](O)c3cccnc3)cc2)cc1OC1CCCCC1.Cl.Cl", "h", 3],
  ["CS(=O)(=O)NC(=O)c1ccc(-c2ccc(CCNC[C@H](O)c3cnccc3N)cc2)cc1OC1CCCCC1.Cl.Cl", "h", 1.7],
  ["CC(C)Cc1cc(-c2ccc(CCNC[C@H](O)c3ccccc3)cc2)ccc1C(=O)NS(C)(=O)=O.Cl", "h", 2.5]
]}

###

So I've got EC50 readings for Beta-1 adrenergic receptor (Homo sapiens, UniProt P08588), take a look.

{"columns": ["CHEMICAL STRUCTURE", "EC50"],
 "data": [
  ["CCCSc1cc(-c2ccc(CCNC[C@H](O)c3ccccc3)cc2)ccc1C(=O)NS(C)(=O)=O.Cl", "> 1000 nM"],
  ["CC(C)Oc1cc(-c2ccc(CCNC[C@H](O)c3cccnc3)cc2)ccc1C(=O)NS(C)(=O)=O", "130 nM"],
  ["CS(=O)(=O)NC(=O)c1ccc(-c2ccc(CCNC[C@H](O)c3ccccc3)cc2)cc1NC1CCCCC1.Cl.Cl", "900 nM"],
  ["CS(=O)(=O)NC(=O)c1ccc(-c2ccc(CCNC[C@H](O)c3ccccc3)cc2)cc1OC1CCCCC1.Cl", "> 1000 nM"]
]}

###

assay: Terminal half life in Beagle dog plasma at 0.10 mg/kg, iv by cassette assay; format: ADME, organism-based, Canis lupus familiaris; parameters: dose 0.1 mg/kg, route intravenous; settings: 0.1 mg/kg, read-out: beta t1/2 (converted)
# half-life per record follows

{"columns": ["CHEMICAL STRUCTURE", "half-life"],
 "data": [
  ["CC(C)Oc1cc(-c2ccc(CCNC[C@H](O)c3ccccc3)cc2)ccc1C(=O)NS(C)(=O)=O.Cl", "12 h"],
  ["CC(C)Nc1cc(-c2ccc(CCNC[C@H](O)c3cccnc3)cc2)ccc1C(=O)NS(C)(=O)=O.Cl.Cl.Cl", "2.7 h"],
  ["CC(C)Sc1cc(-c2ccc(CCNC[C@H](O)c3ccccc3)cc2)ccc1C(=O)NS(C)(=O)=O.Cl", "4.3 h"],
  ["CS(=O)(=O)NC(=O)c1ccc(-c2ccc(CCNC[C@H](O)c3cccnc3)cc2)cc1OC1CCCCC1.Cl.Cl", "5.5 h"],
  ["CS(=O)(=O)NC(=O)c1ccc(-c2ccc(CCNC[C@H](O)c3ccccc3)cc2)cc1CC1CCCCC1.Cl", "3.9 h"],
  ["CC(C)Cc1cc(-c2ccc(CCNC[C@H](O)c3ccccc3)cc2)ccc1C(=O)NS(C)(=O)=O.Cl", "3.5 h"],
  ["CS(=O)(=O)NC(=O)c1ccc(-c2ccc(CCNC[C@H](O)c3ccccc3)cc2)cc1OC1CCCCC1.Cl", "7.8 h"],
  ["CC(C)Nc1cc(-c2ccc(CCNC[C@H](O)c3ccccc3)cc2)ccc1C(=O)NS(C)(=O)=O.Cl.Cl", "6.3 h"],
  ["CS(=O)(=O)NC(=O)c1ccc(-c2ccc(CCNC[C@H](O)c3cnccc3N)cc2)cc1OC1CCCCC1.Cl.Cl", "6.7 h"]
]}
